# Tested on: Saccharomyces cerevisiae
# Assay text: protein stability index of tFT-peptide fusion (C-terminal peptide) (PSI (0-1 scale)); higher = more stable (slower turnover)
# Test parameters: genetic background: wild type; temperature: 30 C
Label rule, in plain words: protein stability index of 0.7 and up is met, under 0.7 is not met.

As a guide, the following entries are already answered.
# Polymer sequence, Measured on, Group label
data = [
    ("SSTVESTNINME [MRT4 C-terminal 12 aa]", "Saccharomyces cerevisiae", "met"),
    ("VVNKYLKENGYY [APE2 C-terminal 12 aa]", "Saccharomyces cerevisiae", "not met"),
    ("IKNSSLAVLHST [YKL162C C-terminal 12 aa]", "Saccharomyces cerevisiae", "not met"),
    ("APDNGPTVEEVD [SSA4 C-terminal 12 aa]", "Saccharomyces cerevisiae", "not met"),
    ("LMESEREARRLR [RPS28A C-terminal 12 aa]", "Saccharomyces cerevisiae", "not met"),
]

## Input Quick check, protein stability index >= 0.7? VAASKASKKSKI [NSA1 C-terminal 12 aa]
## Output not met

## Input // next record HLYFQNPPPAMC [HOT13 C-terminal 12 aa]
## Output met

## Input Record: LIPELYSVLDGF [YDL007C-A C-terminal 12 aa]
## Output met

## Input Field entry: DWEAIDAQTIKL [FAT1 C-terminal 12 aa]
## Output met

## Input What do we get for IDDKSDQEESLQ [MAF1 C-terminal 12 aa] ?
## Output not met

----------
# Tested on: Saccharomyces cerevisiae
# Assay text: protein stability index of tFT-peptide fusion (C-terminal peptide) (PSI (0-1 scale)); higher = more stable (slower turnover)
# Test parameters: genetic background: das1 deletion; temperature: 37 C
Would you mind labelling by protein stability index? At or over 0.7 is 1, under is -1.

Some solved entries appear below for comparison.
# Polymer sequence, Group label
data = [
    ("NYFRPWLIFHKC", 1),
    ("FALPPSLLLLSA", -1),
    ("FVSHRRFSLFLY", 1),
    ("PLATSLIGLFVV", -1),
    ("GLLLRLRNLFCM", 1),
]

# next sequence below
## Input Could you please find out whether HLILWLFFVIVF has protein stability index that meets 0.7 or exceeds it?
## Output -1

----------
# Tested on: Saccharomyces cerevisiae
# Assay text: protein stability index of tFT-peptide fusion in wild type (PSI (0-1 scale)); higher = more stable (slower turnover)
# Test parameters: genetic background: wild type
protein stability index vs 0.1: at or above is MET, below is NOT MET.

## Input Determine whether this sequence has protein stability index no lower than 0.1: RVTRLDAIYFRE
## Output MET

## Input Now give it for LVVYLSCVPCIN too.
## Output MET

## Input Cool, now VRGVVGGWRLVG
## Output MET

## Input Same thing, different sequence: CHSCGYKFRTNN
## Output MET

## Input One more sequence: RVTRLDAYYFRI
## Output MET

## Input Try the sequence LVVYHSCVACIN
## Output MET

## Input Next sequence up: LVVYLCCVACIN
## Output NOT MET

----------
protein stability index by entry:
# Tested on: Saccharomyces cerevisiae
# Assay text: protein stability index of tFT-peptide fusion (C-terminal peptide) (PSI (0-1 scale)); higher = more stable (slower turnover)
# Test parameters: genetic background: das1 deletion; temperature: 30 C
No unit in the answer, please; the number alone is enough.

# Polymer sequence, protein stability index
measured = [
    ("LWGLVWGGVWGV", 0.564),
]

## Input // protein stability index lookup, key: SRSYNSPSLYVC
## Output 0.605

## Input Next: VFFSLSLILFPF
## Output 0.412

## Input Do the same for LSGVLFSLIRFY please
## Output 0.517

## Input // same read-out, input: DLVGRETRMRLN
## Output 0.633

## Input Query LVIFSLLFSFSH next
## Output 0.212

## Input Next entry: AELLMLRIFFLF
## Output 0.333
